assay_summary: collision cross section of modified peptide (TIMS, N2, iRT-aligned); higher = larger / more extended gas-phase ion
condition_parameters: charge state: 2; modification: GlyGly (K)
assay_readout: collision cross section (Å²)
Value expressed in Å²; do not type the unit.

LQEKVESAQSEQK [_LQEK(GlyGly (K))VESAQSEQK_]	427.55
ITESVAETAQTIKK [_ITESVAETAQTIK(GlyGly (K))K_]	453.63
DTGEKLTVAENEAETK [_DTGEK(GlyGly (K))LTVAENEAETK_]	443.91
IQQELQTAKK [_IQQELQTAK(GlyGly (K))K_]	381.49
KYEEIDNAPEER [_K(GlyGly (K))YEEIDNAPEER_]	416.44

Alright, here's another sequence for you.
Ask | Item GTVPDDAVEALADSLGKK [_GTVPDDAVEALADSLGK(GlyGly (K))K_] : provide collision cross section
Reply | 485.77

* * *

assay_summary: collision cross section of modified peptide (TIMS, N2, iRT-aligned); higher = larger / more extended gas-phase ion
condition_parameters: charge state: 3; modification: Formyl
Answer criterion not met if collision cross section is under 500 Å², and criterion met if it is 500 Å² or more.

For orientation, consider the following solved cases.
TQDQISNIKYHEEFEK [_TQDQISNIK(Formyl)YHEEFEK_]	criterion met
VTLEVGKVIQQGR [_VTLEVGK(Formyl)VIQQGR_]	criterion not met
VGIDTPDIDIHGPEGKLK [_VGIDTPDIDIHGPEGK(Formyl)LK_]	criterion met
GTVPDDAVEALADSLGKK [_GTVPDDAVEALADSLGK(Formyl)K_]	criterion met

Ask | Please indicate if the recorded collision cross section for GEVGAGAGPGAQAGPSAKR [_GEVGAGAGPGAQAGPSAK(Formyl)R_] meets or exceeds 500 Å².
Reply | criterion not met

Ask | Please indicate if the recorded collision cross section for ANLEKAQAELVGTADEATR [_ANLEK(Formyl)AQAELVGTADEATR_] meets or exceeds 500 Å².
Reply | criterion met

Ask | Please indicate if the recorded collision cross section for VGLQVVAVKAPGFGDNR [_VGLQVVAVK(Formyl)APGFGDNR_] meets or exceeds 500 Å².
Reply | criterion met

Ask | Please indicate if the recorded collision cross section for PSVGSQSNQAGQGKR [_PSVGSQSNQAGQGK(Formyl)R_] meets or exceeds 500 Å².
Reply | criterion not met

Ask | Please indicate if the recorded collision cross section for SLEEEGAAHSGKR [_SLEEEGAAHSGK(Formyl)R_] meets or exceeds 500 Å².
Reply | criterion not met

* * *

Quick reference: collision cross section of the listed items.
assay_summary: collision cross section of modified peptide (TIMS, N2, iRT-aligned); higher = larger / more extended gas-phase ion
condition_parameters: charge state: 2; modification: Phospho (Y)
Value expressed in Å²; do not type the unit.

Previously resolved entries follow.
CQGGQETQEYR [_CQGGQETQEY(Phospho (Y))R_]	381.17
FTEYETQVK [_FTEY(Phospho (Y))ETQVK_]	359.15

Ask | Item FHYQDQEFLK [_FHY(Phospho (Y))QDQEFLK_] : provide collision cross section
Reply | 397.81

Ask | Item AYDATHLVK [_AY(Phospho (Y))DATHLVK_] : provide collision cross section
Reply | 354.67

Ask | Item DYSVTANSK [_DY(Phospho (Y))SVTANSK_] : provide collision cross section
Reply | 332.04

Ask | Item AYGELPEHAK [_AY(Phospho (Y))GELPEHAK_] : provide collision cross section
Reply | 362.96

Ask | Item PDTQYTGR [_PDTQY(Phospho (Y))TGR_] : provide collision cross section
Reply | 335.56

Ask | Item AYILNLVK [_AY(Phospho (Y))ILNLVK_] : provide collision cross section
Reply | 363.28

Ask | Item VETFSGVYK [_VETFSGVY(Phospho (Y))K_] : provide collision cross section
Reply | 345.95
